Test system: 855422-203-R-J1-PDC complex spheroid viability;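 note: spheroids exposed to compounds for seven days before readout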
Assay: Anticancer human tumor 855422-203-R-J1-PDC patient-derived bladder carcinoma cell line growth inhibition [POLQ]
Details: second compound 0.316 µM; first compound 0.316 µM; stronger effect = lower value
Procedure: Multicellular complex tumor spheroid response to Polymerase (POL) inhibitors (novobiocin, ART-558, RP6685) in combination with a variety of drugs and investigational agents in selected tumor cell lines The POL inhibitors (novobiocin, ART-558, and RP6685) were evaluated both individually and in combination with standard of care and investigational anticancer small molecules within a complex spheroid model of solid tumors. . […]
Observable: viability, T/C (%)

compound="O=c1[nH]cc(F)c(=O)[nH]1 + Cc1cccc(N(C)C(=O)C2C(O)CCN2c2nc(C)cc(C(F)(F)F)c2C#N)c1" system_tested="855422-203-R-J1-PDC complex spheroid viability" observable="viability, T/C" endpoint_value=54.6
compound="CCc1cc2c(N3CCc4c(cc(Cn5ccnc5)cc4-c4cn(C)nc4C(F)(F)F)C3=O)ccnc2c(OC)n1 + COC1C(OC(N)=O)C(O)C(Oc2ccc3c(O)c(NC(=O)c4ccc(O)c(CC=C(C)C)c4)c(=O)oc3c2C)OC1(C)C" system_tested="855422-203-R-J1-PDC complex spheroid viability" observable="viability, T/C" endpoint_value=93.2
compound="C=CCn1c(=O)c2cnc(Nc3ccc(N4CCN(C)CC4)cc3)nc2n1-c1cccc(C(C)(C)O)n1 + Cc1cccc(N(C)C(=O)C2C(O)CCN2c2nc(C)cc(C(F)(F)F)c2C#N)c1" system_tested="855422-203-R-J1-PDC complex spheroid viability" observable="viability, T/C" endpoint_value=126
compound="CC1COCCN1c1cc(C2(S(C)(=N)=O)CC2)nc(-c2ccnc3[nH]ccc23)n1 (stereo not given) + Nc1ccc(C#CCN(C(=O)Cc2ncc(C(F)(F)F)cc2C(F)(F)F)c2ccc(F)cc2)nn1" system_tested="855422-203-R-J1-PDC complex spheroid viability" observable="viability, T/C" endpoint_value=102
compound="CNCc1ccc(-c2[nH]c3cc(F)cc4c3c2CCNC4=O)cc1 + Nc1ccc(C#CCN(C(=O)Cc2ncc(C(F)(F)F)cc2C(F)(F)F)c2ccc(F)cc2)nn1" system_tested="855422-203-R-J1-PDC complex spheroid viability" observable="viability, T/C" endpoint_value=108

Origin of the recorded values: PubChem BioAssay AID1963838
